The origin of these recorded values is ChEMBL document CHEMBL2057200.

Biological target: Cytochrome P450 2C9 (Homo sapiens, UniProt P11712)
Sequence (P11712 whole entry): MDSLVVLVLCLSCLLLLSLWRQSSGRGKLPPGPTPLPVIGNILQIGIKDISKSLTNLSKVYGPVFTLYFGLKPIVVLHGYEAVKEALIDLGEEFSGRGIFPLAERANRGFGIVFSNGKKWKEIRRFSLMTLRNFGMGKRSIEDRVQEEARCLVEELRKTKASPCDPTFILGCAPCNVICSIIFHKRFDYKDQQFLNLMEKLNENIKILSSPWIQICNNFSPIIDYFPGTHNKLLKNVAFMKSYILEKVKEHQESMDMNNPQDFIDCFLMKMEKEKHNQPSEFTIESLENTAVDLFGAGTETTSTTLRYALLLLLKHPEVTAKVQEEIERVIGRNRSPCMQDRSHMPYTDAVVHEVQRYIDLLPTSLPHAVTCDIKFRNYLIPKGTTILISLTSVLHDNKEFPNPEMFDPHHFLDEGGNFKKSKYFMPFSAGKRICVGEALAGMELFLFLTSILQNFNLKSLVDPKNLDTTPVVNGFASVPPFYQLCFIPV
Experiment: Inhibition of recombinant CYP2C9
pIC50: −log10 of the molar value.
QUANTITY_KIND: pIC50

Item: O=C1Nc2ccccc2C2(CCN(C(=O)N[C@H](Cc3csc4ccccc34)C(=O)N3CCC(N4CCCCC4)CC3)CC2)N1 | pIC50: < 4.40

###

Molecular target: Calcitonin gene-related peptide type 1 receptor (Homo sapiens, UniProt O60894+Q16602)
Sequence (Q16602 whole entry, one chain of several): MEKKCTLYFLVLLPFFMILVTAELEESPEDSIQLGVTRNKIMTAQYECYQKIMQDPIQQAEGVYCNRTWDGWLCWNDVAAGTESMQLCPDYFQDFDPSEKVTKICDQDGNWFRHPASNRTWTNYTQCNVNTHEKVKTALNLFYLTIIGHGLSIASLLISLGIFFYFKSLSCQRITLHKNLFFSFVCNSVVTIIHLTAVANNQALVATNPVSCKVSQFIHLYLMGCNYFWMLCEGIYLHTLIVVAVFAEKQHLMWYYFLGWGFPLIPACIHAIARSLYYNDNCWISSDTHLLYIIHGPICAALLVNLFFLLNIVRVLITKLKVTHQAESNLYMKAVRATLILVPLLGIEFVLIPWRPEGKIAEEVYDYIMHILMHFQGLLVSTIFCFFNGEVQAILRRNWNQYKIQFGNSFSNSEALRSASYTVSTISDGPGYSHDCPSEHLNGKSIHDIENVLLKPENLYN
Assay: Displacement of [125I]CGRP from CGRP receptor in human SK-N-MC cells
Assay type: cell-based
I'd be grateful if you could share measured IC50 for these entries.
Answers are plain numbers, in nM.

Some compounds with recorded IC50:
O=C(N[C@H](Cc1csc2ccccc12)C(=O)N1CCC(N2CCCCC2)CC1)N1CCC2(CC1)N=C(c1cccnc1)NC2=O; 210
O=C1Nc2ccccc2C2(CCN(C(=O)N[C@H](Cc3csc4ccccc34)C(=O)N3CCC(N4CCCCC4)CC3)CC2)N1; 5
O=C(N[C@H](Cc1csc2ccccc12)C(=O)N1CCC(N2CCCCC2)CC1)N1CCC2(CC1)N=C(c1ccccc1)NC2=O; 20
O=C(N[C@H](Cc1csc2ccccc12)C(=O)N1CCC(N2CCCCC2)CC1)N1CCC2(CC1)N=C(C1CCCCC1)NC2=O; 8500
O=C(N[C@H](Cc1csc2ccccc12)C(=O)N1CCC(N2CCCCC2)CC1)N1CCC2(CC1)C(=O)NCN2c1ccccc1; 330

Parameters: items (list). Returns: IC50 for each item.
1. CN1c2ccccc2C(=O)NC12CCN(C(=O)N[C@H](Cc1csc3ccccc13)C(=O)N1CCC(N3CCCCC3)CC1)CC2
2. O=C1CC2(CCN(C(=O)N[C@H](Cc3csc4ccccc34)C(=O)N3CCC(N4CCCCC4)CC3)CC2)c2ccccc2N1
3. O=C(N[C@H](Cc1csc2ccccc12)C(=O)N1CCC(C2CCNCC2)CC1)N1CCC(n2c(=O)[nH]c3ccccc32)CC1
4. O=C1NCC2(CCN(C(=O)N[C@H](Cc3csc4ccccc34)C(=O)N3CCC(N4CCCCC4)CC3)CC2)c2ccccc21
5. O=C(N[C@H](Cc1csc2ccccc12)C(=O)N1CCC(N2CCCCC2)CC1)N1CCC(n2c(=O)[nH]c3ccccc32)CC1
6. O=C(N[C@H](Cc1csc2ccccc12)C(=O)N1CCC(N2CCCCC2)CC1)N1CCC2(CC1)C(=O)Nc1ccccc12

[A]
[860, 23, 4, 150, 9, 170]

Parameters: items (list). Returns: IC50 for each item.
1. O=C1Nc2ccccc2C2(CCN(C(=O)N[C@H](Cc3csc4ccccc34)C(=O)N3CCC(N4CCCCC4)CC3)CC2)O1
2. O=C(N[C@H](Cc1csc2ccccc12)C(=O)N1CCC(N2CCCCC2)CC1)N1CCC2(CC1)N=C(c1ccncc1)NC2=O
3. O=C(N[C@H](Cc1csc2ccccc12)C(=O)N1CCC(N2CCCCC2)CC1)N1CCC(N2Cc3ccccc3NC2=O)CC1
4. O=C1Cc2ccccc2C2(CCN(C(=O)N[C@H](Cc3csc4ccccc34)C(=O)N3CCC(N4CCCCC4)CC3)CC2)N1

[A]
20
1400
3
29

###

Target: Cytochrome P450 3A4 (Homo sapiens)
Sequence (P08684 whole entry): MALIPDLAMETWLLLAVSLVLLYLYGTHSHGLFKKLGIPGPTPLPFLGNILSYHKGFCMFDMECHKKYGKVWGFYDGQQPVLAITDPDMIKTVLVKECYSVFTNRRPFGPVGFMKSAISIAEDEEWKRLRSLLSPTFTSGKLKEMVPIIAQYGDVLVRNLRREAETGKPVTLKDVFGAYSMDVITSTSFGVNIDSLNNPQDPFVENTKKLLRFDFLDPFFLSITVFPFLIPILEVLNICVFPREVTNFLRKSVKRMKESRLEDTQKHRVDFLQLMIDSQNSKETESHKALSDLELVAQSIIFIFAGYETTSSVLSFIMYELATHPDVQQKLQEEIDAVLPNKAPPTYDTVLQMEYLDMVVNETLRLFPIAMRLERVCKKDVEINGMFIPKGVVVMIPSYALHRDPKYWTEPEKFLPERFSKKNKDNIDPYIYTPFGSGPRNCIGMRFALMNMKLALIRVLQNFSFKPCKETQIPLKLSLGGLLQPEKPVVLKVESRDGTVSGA
QUANTITY_KIND: pIC50
Give bare numbers, as −log10 of the molar value.

Item: O=C1Nc2ccccc2C2(CCN(C(=O)N[C@H](Cc3csc4ccccc34)C(=O)N3CCC(N4CCCCC4)CC3)CC2)N1 | pIC50: 7.00
